Entries annotated with measured pKd
tested-target: T1, TIAM2, Q8IVF5
T1 sequence (Q8IVF5 885-986, limits assumed, looked up): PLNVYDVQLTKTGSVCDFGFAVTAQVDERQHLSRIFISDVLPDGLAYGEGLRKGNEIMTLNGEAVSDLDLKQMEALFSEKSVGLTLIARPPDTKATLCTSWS
protocol-details: holdup assay
Design: key: below the threshold = too weak to quantify, mostly under pKd 3.1 to 4
experimental-context: plain residues with an end cap or a label only (N-terminal biotin on a linker: ado-ado)
quantity-name: pKd

{"columns": ["binder", "quantitative-result"],
 "data": [
  ["RKPKPSSSCC [RAB9A, P51151]", 3.8],
  ["KSGKQTMLVV [TRIM29, Q14134]", 3.64],
  ["NHSSSPETTA [TRMT13, Q9NUP7]", 4.02],
  ["EALLQMESVA [CAVIN3, Q969G5]", 4.12],
  ["FNSYSLTGYV [CLDN2, P57739]", 3.94],
  ["PRISRSQSEL [CCDC134, Q9H6E4]", 3.86],
  ["SSALYGESDL [ACTN2, P35609]", 4.18],
  ["RRISSLESEV [GRIN2C, Q14957]", 4.13],
  ["DDEDRLVIEI [ZNF831, Q5JPB2]", 3.9],
  ["QSARLWETSI [ADAM22, Q9P0K1]", 3.97],
  ["GQEEQVTTRL [TRPC5, Q9UL62]", 3.65],
  ["KKAPTNEFYA [SDC4, P31431]", 3.94],
  ["ETQVTAETVI [TMEM225B, P0DP42]", 3.79],
  ["SKENVQETQI [LRRC4B, Q9NT99]", 4.1],
  ["RRLPGKETMA [GRIK2, Q13002]", 3.97],
  ["DDPSTAETVL [ABCA7, Q8IZY2]", 3.99]
]}
